test.details: Pharmacokinetics and absolute bioavailability after single oral or intravenous administration (Example 1)
run.parameters: both, domestic short hair (HsdCpb: CADS), plasma, iv, 1 mg/kg
observed.property: clearance (mL/min/kg)
Lab book: enter the figure in mL/min/kg, no units written.

Incoming: // clearance lookup, key: CCCc1nc2c(C)cc(-c3nc4ccccc4n3C)cc2n1Cc1ccc(-c2ccccc2C(=O)O)cc1
Outgoing: 45.5
